- STUDY_SYSTEM: Cyclin-dependent kinase 2 (Homo sapiens)
- PROCEDURE_DETAILS: Inhibition of Cdk2/cyclinA
pIC50: −log10 of the molar value.
MEASURE: pIC50

Checklist item: pIC50 tested on Cyclin-dependent kinase 2 (Homo sapiens), entry O=C1N=C(NCc2ccccc2)S/C1=C\c1c[nH]c2ncccc12 , value?
> 7.30

* * *

- STUDY_SYSTEM: Cell division cycle 7-related protein kinase (Homo sapiens, UniProt O00311)
- Sequence (O00311 whole entry): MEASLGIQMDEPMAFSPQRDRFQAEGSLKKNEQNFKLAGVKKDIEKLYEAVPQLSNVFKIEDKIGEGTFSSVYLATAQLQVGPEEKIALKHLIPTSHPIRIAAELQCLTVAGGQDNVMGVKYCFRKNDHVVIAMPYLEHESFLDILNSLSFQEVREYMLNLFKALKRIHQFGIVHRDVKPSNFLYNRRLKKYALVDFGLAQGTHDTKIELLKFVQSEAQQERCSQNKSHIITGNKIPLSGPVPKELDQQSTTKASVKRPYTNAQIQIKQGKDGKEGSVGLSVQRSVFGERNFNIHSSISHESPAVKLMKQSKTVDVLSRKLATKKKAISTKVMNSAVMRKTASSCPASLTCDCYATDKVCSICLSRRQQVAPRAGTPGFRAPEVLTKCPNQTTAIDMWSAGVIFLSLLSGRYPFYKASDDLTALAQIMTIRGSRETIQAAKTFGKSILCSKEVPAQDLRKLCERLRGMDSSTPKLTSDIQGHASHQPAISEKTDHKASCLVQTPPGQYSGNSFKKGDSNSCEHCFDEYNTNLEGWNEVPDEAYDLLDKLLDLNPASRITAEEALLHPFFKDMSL
MEASURE: pIC50
# pIC50 is unitless: minus log10 of the molar concentration; print number only

Field: example entries. Status: answers known.
C[C@H](NC1=NC(=O)/C(=C/c2c[nH]c3ncccc23)S1)c1ccccc1    7.59
Cc1cccc(C2=N/C(=C\c3c[nH]c4ncccc34)C(=O)N2)c1    7.52
O=C1NC(NCCc2ccccc2)=N/C1=C\c1c[nH]c2ncccc12    7.74

Tell me reported pIC50 for CC1CCN(C2=N/C(=C\c3c[nH]c4ncccc34)C(=O)N2)CC1 , tested with Cell division cycle 7-related protein kinase (Homo sapiens, UniProt O00311).
6.98

Cited source: ChEMBL document CHEMBL1137791
